meta.source: ChEMBL document CHEMBL1629600

# Test name: Drug level in HIV1 infected human plasma at 5 mg after 24 hrs presence of 400 mg of Lopinavir and 100 mg of itonavir
# Format: ADME
# Experimental setup: read-out: Drug uptake
Recorded metric: concentration at 24 h (ng/mL)

INSERT INTO measurements (entry_smiles, recorded_metric, unit_label, observed) VALUES
  ('Nc1nc(=O)n([C@@H]2C=C[C@H](CO)O2)cc1F', 'concentration at 24 h', 'ng/mL', 0.832);

---

# Test name: Cmax in HIV1 infected human at 20 mg after 24 hrs in presence of 400 mg of Lopinavir and 100 mg of itonavir administered once every 12 hrs
# Format: ADME, organism-based
# Design: dose 20 mg
# Experimental setup: in vivo
Recorded metric: Cmax (ng/mL)

INSERT INTO measurements (compound, recorded_metric, unit_label, observed) VALUES
  ('Nc1nc(=O)n([C@@H]2C=C[C@H](CO)O2)cc1F [ELVUCITABINE]', 'Cmax', 'ng/mL', 39.1);
